In this section we review reported IC90 values for a set of molecules.
- System: M. tuberculosis H37Rv growth inhibition with meropenem
- test_method_notes: dose response, H37Rv, with and without meropenem (AID 434987);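 also: growth over 7 days at 37 °C before Alamar Blue read on day 9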
- experimental_context: measured here: IC90 with meropenem

molecule | IC90
COc1ccc(-c2cc3nc(C)cc(N4CC(C)CC(C)C4)n3n2)cc1 (stereo not given) | > 100 µM
Cc1ccc(OCC(=O)Nc2ccc(-c3nc4ncccc4o3)cc2)c(C)c1 | > 100 µM
COc1cc(/C=C/C(=O)OCC(=O)Nc2ccc(Cl)cn2)ccc1O | > 100 µM
COc1ccc(C(=O)/C=C/c2cccs2)c(OC(=O)c2cccc([N+](=O)[O-])c2)c1 | > 100 µM
Cc1cc(C(=O)CN2C(=O)NC(C)(CC(C)C)C2=O)c(C)n1-c1ccc2c(c1)OCO2 (stereo not given) | 96.4 µM
Cc1cc(C)c(C)c(S(=O)(=O)N2C(=S)NC(=O)C2CC(C)C)c1C (stereo not given) | > 100 µM
CCOc1ccc2nc(N3CCC(C(=O)NC4CCCCC4)CC3)sc2c1 | > 100 µM
COC(=O)Cn1nc(-c2ccccc2)c2ccccc21 | > 100 µM
Cc1onc(-c2ccccc2Cl)c1C(=O)NCc1ccc2c(c1)cc(C)n2C | 29.4 µM
COc1ccccc1CNC(=O)c1ccc(SC)cc1OC | > 100 µM
Cc1ccc(/C=N/NC(=O)c2cccs2)s1 | > 100 µM
CCC(=O)NC(=S)Nc1ccc(NC(=O)c2cccc([N+](=O)[O-])c2C)cc1 | > 100 µM
CC1CC(C)(C)n2c(O)c(N=NC(N)=S)c3cccc1c32 (stereo not given) | > 100 µM
CCC(CC)c1nnc(NC(=O)c2ccc(N3CCCCC3)c([N+](=O)[O-])c2)s1 | 44 µM
CCCCN(CCCC)C(=S)N/N=C/c1c(C)[nH]n(-c2ccccc2)c1=O | > 100 µM
CC(C)CCN1CC(O)=C(c2nc3ccccc3[nH]2)C1=N | > 100 µM
CC#CC[N+](C)(C)CCCCCCCCCCCC | > 100 µM
CCn1cc(C(=O)O)c(=O)c2cc(F)c(N/N=C/c3ccccc3)cc21 | > 100 µM
O=C1C(Cl)=C(N2CCCCCC2)C(=O)N1c1ccc(Br)cc1 | 19.4 µM
CNC(=O)Nc1cccc(-c2cc(-c3c(Cl)cccc3Cl)no2)c1 | > 100 µM

---

As shown below, each of these compounds has a reported IC90 value.
- Test system: M. tuberculosis H37Rv growth inhibition with meropenem
- test_method_notes: dose response, H37Rv, with and without meropenem (AID 434987);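 also: growth over 7 days at 37 °C before Alamar Blue read on day 9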
- experimental_context: measured here: IC90 with meropenem
measurement_type: IC90

compound | meas_value
Cc1cc2c(=O)oc(-c3ccc(Br)cc3)nc2s1 | > 100 µM
COc1ccc(Cn2c(=O)[nH]c3cc(C(=O)N4CCN(c5ccccc5F)CC4)ccc3c2=O)cc1 | > 100 µM
CCCCCCCN(C(=O)CCl)c1ccccc1C | 35.2 µM
COc1cccc(/C=N/NC(=O)CSCC(=O)Nc2ccccc2)c1O | > 100 µM
COc1ccc(OC(=O)c2cccc([N+](=O)[O-])c2)c(C(=O)/C=C/c2cccs2)c1 | > 100 µM
COc1cc2c(C(=O)N3CCN(c4ccccc4C)CC3)c(C)oc2cc1Br | > 100 µM
CCCOc1ccc(C2Nc3cccc4cccc(c34)N2)cc1 | > 100 µM
O=C1N/C(=C\c2ccc(O)cc2)C(=O)c2ccccc21 | > 100 µM
CCOc1ccc2c(c1)c(C(C)=O)c(C)n2-c1ccccc1 | 1.96 µM
O=C(O)C1CC(=O)N(c2ccc(OCc3ccccc3Cl)cc2)C1 (configuration not stated) | > 100 µM
CCCCN(C)Cc1cc(=O)oc2cc3c(cc12)CCCC3 | 82.2 µM
O=C(CCN1C(=O)/C(=C/c2ccccc2F)SC1=S)Nc1ccccn1 | > 100 µM
COc1ccc(/C=C2\N=C(SC)N(c3ccccc3OC)C2=O)cc1 | > 25 µM
C[C@]12CC[C@@H]3c4ccc(OS(=O)(=O)O)cc4CC[C@H]3[C@@H]1CCC2=O | > 100 µM
O=C(N/N=C\c1cn[nH]c1-c1ccc(Cl)cc1)c1cccs1 | > 100 µM
CCOC(=O)CNC(=O)CSc1ncnc2c1cnn2Cc1ccccc1 | > 100 µM
Cc1ccn2c(CNCCn3nc(C)cc3C)c(C(=O)N3CCCCCC3)nc2c1 | > 100 µM
COc1ccccc1CNC(=O)c1cc2c(C)nn(Cc3ccc(F)cc3)c2s1 | > 100 µM
COc1cc(SC)ccc1C(=O)Nc1ccc(C)cc1C | > 100 µM
COc1cc(/C=C/C(=O)OCC(=O)Nc2cc(C)c(C)cc2[N+](=O)[O-])ccc1O | > 100 µM
C=CCc1cc(Cl)ccc1OCCCNC(C)CC (configuration not stated) | 51.3 µM
COc1cccc(C(=O)C2CCCN(Cc3ccccn3)C2)c1 (configuration not stated) | 97.5 µM
O=C(NCc1ccco1)c1cc2n(n1)C(C(F)(F)F)CC(c1ccc(F)cc1)N2 (configuration not stated) | > 100 µM
Cc1ccc(-n2ncc(-c3nnc(SCC(=O)NC4CCCC4)o3)c2N)cc1C | > 100 µM
C=CCNCCCOc1ccc(Cl)cc1C(C)(C)C | 52.6 µM
COc1ccc(Cl)cc1NC(=O)NNC(=O)c1ccccn1 | > 100 µM
CCCCC12CN3CC(C)(CN(C1)C3c1ccc([N+](=O)[O-])o1)C2=O (configuration not stated) | 23.5 µM
Cc1nnnn1/C(=C\c1ccccc1)C(=O)OCC(=O)NC1CCCCC1 | 17.6 µM
C=CCSc1nccc(-c2nn(-c3ccc(C)cc3)ccc2=O)n1 | > 100 µM
COc1ccc(-c2cc(C(F)(F)F)nc(SCC(=O)Nc3sc4c(c3C#N)CCC4)n2)cc1 | > 100 µM
O=c1c(O)c(-c2ccc3c(c2)OCO3)oc2ccccc12 | > 100 µM
O=C(NN1C(=O)C2C(C1=O)C1C=CC2C12CC2)c1ccncc1 (configuration not stated) | 13.9 µM
